- experiment: in vitro
- test.context: human, hela cells, % viability
Some molecules, each annotated with its measured viability at 28.5 h, 10 µM.

viability at 28.5 h, 10 µM reading for COCC(C)NS(=O)(=O)c1cc(Cl)ccc1OC (stereo not drawn) : 90.7%

viability at 28.5 h, 10 µM reading for CCOC(=O)c1ccc(COc2cccc(-c3cnc4ccccc4n3)c2)cc1 : 94.2%

viability at 28.5 h, 10 µM reading for CCC(=O)NCCc1c[nH]c2ccc([N+](=O)[O-])cc12 : 110%

viability at 28.5 h, 10 µM reading for Cc1c(C(=O)N2CCN(C3CC3)CC2)nnn1Cc1ccc(F)cc1F : 97.1%

viability at 28.5 h, 10 µM reading for O=C(O)Cn1c2ccc(Br)cc2c2nc3ccccc3nc21 : 97.1%

viability at 28.5 h, 10 µM reading for CC(C)(C)OC(=O)N1CCN(c2ccc(C(F)(F)F)c(Cl)n2)CC1 : 88.9%

viability at 28.5 h, 10 µM reading for Cc1ncccc1COC(=O)N1c2ccccc2CCC1C (stereo not drawn) : 101%

viability at 28.5 h, 10 µM reading for CC(C)OCC(O)C[S+]([O-])Cc1ccccc1 (stereo not drawn) : 93.4%

viability at 28.5 h, 10 µM reading for O[C@H]1[C@H](NCc2ccccn2)[C@H]2CO[C@H](O2)[C@@H]1N1CCC(Cc2ccccc2)CC1 : 87.2%

viability at 28.5 h, 10 µM reading for O=C(CCS(=O)(=O)c1ccc(Br)cc1)OCC(=O)c1ccccc1 : 104%

viability at 28.5 h, 10 µM reading for O=C(NCc1ccccc1OC1CCNC1)c1ccccc1 (stereo not drawn) [CBK028301T] : 114%

viability at 28.5 h, 10 µM reading for CSc1ncc(Cl)c(C(=O)Nc2sc3c(c2C(=O)NC2CCS(=O)(=O)C2)CCC(C)C3)n1 (stereo not drawn) : 95.2%

viability at 28.5 h, 10 µM reading for CCOc1ccc(C(=O)N2CCN(S(=O)(=O)c3ccc(C)cc3C)CC2)cn1 : 93.3%

viability at 28.5 h, 10 µM reading for CCCn1c(SCC(=O)NC2CCN(CC)CC2)nc2cc(Cl)ccc21 : 104%

viability at 28.5 h, 10 µM reading for COc1cc(C)cc(OC)c1-c1ncnc(C)c1C : 85.7%

viability at 28.5 h, 10 µM reading for Cn1c(NCc2ccccn2)nc2ccccc21 : 110%

viability at 28.5 h, 10 µM reading for O=C1/C(=C/c2c(NCCCn3ccnc3)nc3ccccn3c2=O)SC(=S)N1CC1CCCO1 (stereo not drawn) : 99.3%

viability at 28.5 h, 10 µM reading for CCn1cc(CN2CCCN(C(=O)c3cc(C4CC4)on3)CC2)cn1 : 88.1%

viability at 28.5 h, 10 µM reading for CCCc1[nH]ncc1C(=O)N1CCN(c2ccnc(N(C)C)n2)CC1 : 96.4%

viability at 28.5 h, 10 µM reading for Cc1ccccc1C(NC(=O)C1CCN(C(=O)OCc2ccccc2)CC1)c1ccc(=O)[nH]c1 (stereo not drawn) : 85.7%

viability at 28.5 h, 10 µM reading for COCCNC(=O)c1ccc(-n2ccnc2)c(-n2cccc2)c1 : 85.5%

###

- Tested on: C. trachomatis L2/434/Bu expressing GFP (CTL2-GFP)
- Construct: L2/434/Bu GFP intracellular growth in HeLa cells
- experiment: microbe, parasite or virus in culture
- Parameters: C. trachomatis total inclusion area by high-content imaging, normalised to DMSO
- test.context: Chlamydia trachomatis, HeLa, 28.5 h; total inclusion area; read-out: % of control remaining
Some compounds, each annotated with its measured activity at 10 µM.
Numeric only. Scale: %

Below, 3 compounds whose answers are already recorded.
- compound: "O=[N+]([O-])c1ccc(-n2cnc3ccccc32)c([N+](=O)[O-])c1"
  observation.type: "activity at 10 µM"
  unit.symbol: "%"
  quantitative.readout: 2.35
- compound: "O=C(CC1CCN(CCc2ccccc2)CC1)Nc1cccc(-n2cccn2)c1"
  observation.type: "activity at 10 µM"
  unit.symbol: "%"
  quantitative.readout: 0.166
- compound: "CCc1cc(-c2n[nH]cc2-c2nc(C)cs2)c(O)cc1OC"
  observation.type: "activity at 10 µM"
  unit.symbol: "%"
  quantitative.readout: 6.53

Here's the next entry for you.
activity at 10 µM reading for COc1ccc([C@@]23CC[C@@H](NC(=O)c4ccc(-c5ccccc5)cc4)CC2N(C)CC3)cc1OC (some centres unmarked) [CBK074973T] : 31.1

###

Some compounds, each annotated with its measured viability at 28.5 h, 10 µM.
- experiment: in vitro
- test.context: human, hela cells, % viability
Dear colleague, please send the value followed by its unit.

Below, 4 compounds whose answers are already recorded.
- compound: "COc1ccc(-c2cc(=O)n3cc[nH]c3n2)cc1 [CBK006659]"
  result: "87.6%"
- compound: "Cc1cccc(-c2noc(CNC(=O)CSc3ccccc3)n2)c1 [CBK270209]"
  result: "98.3%"
- compound: "CC(C)(C)C1=CC2=NC3(CCC3)C3C[C@](O)(COCc4ccccc4)[C@@H](O)[C@@H]3N2O1 (some centres unmarked) [CBK303259]"
  result: "102%"
- compound: "Cc1cnoc1-c1cc(Cl)cc(Cl)c1O [CBK015870]"
  result: "89.3%"

Here's the next entry for you.
viability at 28.5 h, 10 µM reading for C=CCn1ncc(CN(CCN(C)C)Cc2ccc(C)o2)c1C [CBK282846] : 81.3%

###

- experiment: in vitro
- test.context: human, hela cells, % viability
Some compounds, each annotated with its measured viability at 28.5 h, 10 µM.
Dear colleague, please send the value followed by its unit.

viability at 28.5 h, 10 µM reading for Cc1cccc(-c2noc(C)c2C(=O)NCCn2ccnc2C)c1 [CBK282633] : 107%

viability at 28.5 h, 10 µM reading for O=C(NCC(F)(F)F)c1ccc(-c2ccccc2)nc1NCc1cccnc1 [CBK076551] : 95%

viability at 28.5 h, 10 µM reading for Cc1ccc2nc(-c3ccncc3)cc(C(=O)N3CCN(c4ncccn4)CC3)c2c1 [CBK267751] : 93%

###

Some compounds, each annotated with its measured viability at 28.5 h, 10 µM.
- experiment: in vitro
- test.context: human, hela cells, % viability
Dear colleague, please send the value followed by its unit.

- compound: "COc1ccc2cc(C(=O)NC3CCCN(C)C3)n(C)c2c1 (stereo not shown)"
  result: "85.1%"
- compound: "CC(C)C(=O)NC(c1ccco1)c1ccc2cccnc2c1O (stereo not shown)"
  result: "96.5%"
- compound: "O=C(O)C=Cc1cn(-c2ccccc2)nc1-c1ccc(-c2ccc([N+](=O)[O-])cc2)o1"
  result: "105%"
- compound: "Cc1nn(C)cc1CN1CCN(C(=S)NCCc2ccccc2)CC1"
  result: "98.4%"
- compound: "O=C(Nc1c(F)cccc1F)N(Cc1cc(F)cc(F)c1)CC1CCNCC1"
  result: "90.5%"

viability at 28.5 h, 10 µM reading for Cc1ccc(S(=O)(=O)N2CCC(N3CCN(CCO)CC3)CC2)cc1 [CBK264656G] : 96.8%

viability at 28.5 h, 10 µM reading for O=S(=O)(NCc1ccccc1)c1cccc(S(=O)(=O)NCc2ccccc2)c1 : 91.5%

viability at 28.5 h, 10 µM reading for Nc1nc(CSc2nnc(-c3ccccc3O)n2Cc2ccccc2)cs1 : 90.4%

viability at 28.5 h, 10 µM reading for CC(CNC(=O)C1CCCC1)N1CCc2ccccc2C1 (stereo not shown) : 94.2%

viability at 28.5 h, 10 µM reading for Cc1nc2ccccc2n1CC(=O)N(Cc1cccnc1)C1CC1 : 109%

###

- experiment: in vitro
- test.context: human, hela cells, % viability
Some compounds, each annotated with its measured viability at 28.5 h, 10 µM.
Numeric only. Scale: %

- compound: "COC(=O)CC(C)(C)/C(C)=N/NS(=O)(=O)c1ccc(C)cc1"
  unit.symbol: "%"
  viability at 28.5 h, 10 µM: 86.7
- compound: "COc1ccc2[nH]c(C(=O)O)c(CCC(=O)O)c2c1"
  unit.symbol: "%"
  viability at 28.5 h, 10 µM: 98.1
- compound: "Cc1nc2c(cc(OCC(O)COc3ccc(C#N)cc3)c3ccsc32)s1 (centres unmarked)"
  unit.symbol: "%"
  viability at 28.5 h, 10 µM: 84.6
- compound: "CC1CN(Cc2nc3c(c(=O)n(C)c(=O)n3C)n2CCN2CCOCC2)CC(C)O1 (centres unmarked)"
  unit.symbol: "%"
  viability at 28.5 h, 10 µM: 93.3
- compound: "COc1ccc(C(=O)Nc2cc(C)c3c(=O)oc4ccccc4c3n2)c(OC)c1"
  unit.symbol: "%"
  viability at 28.5 h, 10 µM: 94.5
- compound: "Cc1ccc2cc(CN(CC(C)C)S(C)(=O)=O)c(O)nc2c1"
  unit.symbol: "%"
  viability at 28.5 h, 10 µM: 101
- compound: "O=C(Nc1ccc(N2CCN(C(=O)c3ccco3)CC2)cc1)c1cccnc1"
  unit.symbol: "%"
  viability at 28.5 h, 10 µM: 102

viability at 28.5 h, 10 µM reading for O=C(C1CC1)N1CCC2(CC1)Nc1ccccc1-n1cccc12 : 91.5
